assayed-target: β -galactosidase
protocol-description: β-galactosidase inhibitory activity (colorimetric, O-nitrophenyl-β-D-galactopyranose substrate)
Format: biochemical, Aspergillus sp.
condition-description: Test Example 2; acetate buffer pH 5.0, 37°C, 15 minutes
endpoint-label: log10 of IC₅₀ (log10 of the value in ng/mL)
Scale: log10; quantity: IC₅₀; unit before log: ng/mL

Ask | Endpoint output: log10 of IC₅₀ of COc1ccc(CN2C[C@H](O)[C@@H](O)[C@@H](O)[C@H]2CO)cc1C . Value?
Reply | 2.56

* * *

assayed-target: β -galactosidase
protocol-description: β-galactosidase inhibitory activity (colorimetric, O-nitrophenyl-β-D-galactopyranose substrate)
Format: biochemical, Aspergillus sp.
condition-description: Test Example 2; acetate buffer pH 5.0, 37°C, 15 minutes
endpoint-label: IC₅₀ (ng/mL)
Your answer is read as ng/mL, so omit the unit and give the number.

1. CSc1ccc(CN2C[C@H](O)[C@@H](O)[C@@H](O)[C@H]2CO)cc1 [Example 15]: 393
2. OC[C@@H](O)[C@H](O)[C@H](O)[C@@H](O)CN1C[C@H](O)[C@@H](O)[C@@H](O)[C@H]1CO [Example 17]: 49

Ask | Endpoint output: IC₅₀ of COCCN1C[C@H](O)[C@@H](O)[C@@H](O)[C@H]1CO [Example 11, N-methoxyethyl-1-deoxygalactostatin] . Value?
Reply | 59

Ask | Endpoint output: IC₅₀ of OC[C@@H]1[C@H](O)[C@H](O)[C@@H](O)CN1Cc1ccc(-c2ccccc2)cc1 [Example 12, N-(p-phenylbenzyl)-1-deoxygalactostatin] . Value?
Reply | 166

Ask | Endpoint output: IC₅₀ of CCCCCN1C[C@H](O)[C@@H](O)[C@@H](O)[C@H]1CO [Example 13, N-n-pentylnyl-1-deoxygalactostatin] . Value?
Reply | 113

Ask | Endpoint output: IC₅₀ of OC[C@@H]1[C@H](O)[C@H](O)[C@@H](O)CN1CC1CCCCC1 [Example 20, N-cyclohexylmethyl-1-deoxygalactostatin] . Value?
Reply | 37

Ask | Endpoint output: IC₅₀ of OC[C@@H]1[C@H](O)[C@H](O)[C@@H](O)CN1CCc1ccccc1 [Example 16, N-phenylethyl-1-deoxygalactostatin] . Value?
Reply | 21

Ask | Endpoint output: IC₅₀ of O=C(O)CCCN1C[C@H](O)[C@@H](O)[C@@H](O)[C@H]1CO [Example 24, N-(3-carboxypropyl)-1-deoxygalactostatin] . Value?
Reply | 351
